Experiment: Cytotoxicity (CC50) assay by CO-ADD
Format: cell-based, human
Settings: human, HEK293 cells (ATCC CRL-1573); Table 1; cytotoxicity on HEK293 cells, tested at ≤32 µg/mL
property: CC50

Solved entries:
>  <compound>
CC(C)CCc1cn(-c2c(OCC(=O)N[C@H](CCCNC(=N)N)Cn3cc(Cc4ccccc4)nn3)ccc3ccccc23)nn1.Cl [Compound 23]

>  <CC50>
> 32 µg/mL

$$$$
>  <compound>
CC(C)CCc1cn(-c2ccccc2OCC(=O)N[C@H](CCCNC(=N)N)Cn2cc(C3CCCCC3)nn2)nn1 [Compound 10]

>  <CC50>
> 32 µg/mL

$$$$
>  <compound>
CC(C)CCc1cn(-c2ccccc2OCC(=O)N[C@H](CCCNC(=N)N)Cn2cc(C3CCCC3)nn2)nn1.Cl [Compound 11]

>  <CC50>
> 32 µg/mL

$$$$
>  <compound>
CC(C)CCc1cn(-c2c(OCC(=O)N[C@H](CCCCN)C(=O)N[C@H](CCCNC(=N)N)Cn3cc(C4CCCCC4)nn3)ccc3ccccc23)nn1.Cl.Cl [Compound 40]

>  <CC50>
32 µg/mL

$$$$

Now look at this entry.
Ask: Bench note: what CC50 did CC(C)CCc1cnnn1-c1ccccc1OCC(=O)N[C@H](CCCCN)C(=O)N[C@H](CCCNC(=N)N)Cn1cc(CC2CCCCC2)nn1 [Compound 38] show?
Result: 32 µg/mL
